For each entry below, report its Kd value.
# Target: T1, Rhesus macaque CD4-HIS (Acro Biosystems, Cat. CD4-C52H7) (rhesus macaque, UniProt P16003 26-390)
# T1 construct: Bought reagent; also called Rhesus CD4; rhesus CD4-HIS; not shown: His tag
# T1 sequence (P16003 26-390 limits assumed): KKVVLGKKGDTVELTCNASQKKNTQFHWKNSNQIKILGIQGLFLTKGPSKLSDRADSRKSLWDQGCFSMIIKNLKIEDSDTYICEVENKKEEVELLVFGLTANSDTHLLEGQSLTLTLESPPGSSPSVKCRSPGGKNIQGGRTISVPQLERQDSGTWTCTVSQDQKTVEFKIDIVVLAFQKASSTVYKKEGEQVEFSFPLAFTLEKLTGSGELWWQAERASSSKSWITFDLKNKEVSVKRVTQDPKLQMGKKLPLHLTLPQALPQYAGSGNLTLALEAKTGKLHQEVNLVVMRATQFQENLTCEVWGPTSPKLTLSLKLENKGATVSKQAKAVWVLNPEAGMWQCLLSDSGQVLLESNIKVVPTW
# Assay notes: BLI (Octet Red384); Ab on anti-mouse Fc (AMC) sensor; rhesus CD4-HIS 100/50/25 nM; global 1:1 fit;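 further: antibodies loaded at 10 µg/mL, an unrelated mouse-derived antibody served as internal reference, curves fit over association and dissociation phases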
State just the number; it will be interpreted in µM.

75110_10K21A (antibody, V domains shown, Tested as antibody purified from AlivaMab Mouse hybridoma supernatant (human variable domains, kappa; mouse Fc, captured on anti-mouse IgG Fc sensors); also called ADS75110 purified AMM Ab) VH: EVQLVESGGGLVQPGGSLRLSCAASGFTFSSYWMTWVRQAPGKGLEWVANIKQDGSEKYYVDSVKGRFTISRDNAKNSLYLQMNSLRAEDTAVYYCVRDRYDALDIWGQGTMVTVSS VL: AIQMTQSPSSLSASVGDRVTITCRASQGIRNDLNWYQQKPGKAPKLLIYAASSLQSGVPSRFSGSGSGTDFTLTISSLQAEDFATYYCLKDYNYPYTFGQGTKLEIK has a reported Kd of 0.0021

Entry 75110_08G08A (antibody, V domains shown, Tested as antibody purified from AlivaMab Mouse hybridoma supernatant (human variable domains, kappa; mouse Fc, captured on anti-mouse IgG Fc sensors); also called ADS75110 purified AMM Ab) VH: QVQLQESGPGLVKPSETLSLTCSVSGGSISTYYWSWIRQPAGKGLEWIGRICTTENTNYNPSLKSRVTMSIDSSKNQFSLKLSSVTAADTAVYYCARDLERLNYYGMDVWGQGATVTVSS VL: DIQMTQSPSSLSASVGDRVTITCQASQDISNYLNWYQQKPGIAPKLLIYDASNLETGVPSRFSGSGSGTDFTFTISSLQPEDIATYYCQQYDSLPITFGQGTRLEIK , Kd reported as 0.019

Notebook: 75110_06K03A (antibody, V domains shown, Tested as antibody purified from AlivaMab Mouse hybridoma supernatant (human variable domains, kappa; mouse Fc, captured on anti-mouse IgG Fc sensors); also called ADS75110 purified AMM Ab) VH: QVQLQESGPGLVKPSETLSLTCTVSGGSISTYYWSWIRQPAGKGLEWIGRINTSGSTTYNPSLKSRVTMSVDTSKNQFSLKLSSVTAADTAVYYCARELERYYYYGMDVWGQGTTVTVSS VL: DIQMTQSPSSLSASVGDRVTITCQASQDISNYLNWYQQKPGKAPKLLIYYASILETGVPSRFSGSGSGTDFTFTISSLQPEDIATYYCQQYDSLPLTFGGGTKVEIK , Kd read as 0.0078

Given item 75110_07B16A (antibody, V domains shown, Tested as antibody purified from AlivaMab Mouse hybridoma supernatant (human variable domains, kappa; mouse Fc, captured on anti-mouse IgG Fc sensors); also called ADS75110 purified AMM Ab) VH: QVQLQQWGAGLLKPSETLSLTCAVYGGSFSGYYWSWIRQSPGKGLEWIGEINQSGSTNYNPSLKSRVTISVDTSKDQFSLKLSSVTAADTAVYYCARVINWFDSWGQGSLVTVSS VL: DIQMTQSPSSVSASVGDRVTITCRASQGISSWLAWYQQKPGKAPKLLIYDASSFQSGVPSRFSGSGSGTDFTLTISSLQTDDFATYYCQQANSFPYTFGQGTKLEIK , the value recorded as its Kd is 0.013

// recorded Kd for 75110_06E14A (antibody, V domains shown, Tested as antibody purified from AlivaMab Mouse hybridoma supernatant (human variable domains, kappa; mouse Fc, captured on anti-mouse IgG Fc sensors); also called ADS75110 purified AMM Ab) VH: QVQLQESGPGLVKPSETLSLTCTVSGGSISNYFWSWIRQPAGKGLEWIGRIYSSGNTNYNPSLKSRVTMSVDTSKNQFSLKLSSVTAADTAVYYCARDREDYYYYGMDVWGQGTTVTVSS VL: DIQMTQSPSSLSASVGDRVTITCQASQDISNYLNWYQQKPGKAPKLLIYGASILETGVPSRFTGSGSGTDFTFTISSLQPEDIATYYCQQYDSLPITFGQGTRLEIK : 0.23
